System: OVCAR-4
assay: NCI tumour cell line growth inhibition, 48 h
Activity calls are given as the source filed them. Cut-off read from the data, not from the text of the source: active = GI50 up to about 1.1 µM and inactive = higher.
Reported GI50 values are given for each entry in this list.

{"molecule": "Oc1cc(-c2cccc(OCc3ccccc3)c2)nc2cc3c(cc12)OCO3", "GI50": "2.81 µM (inactive)"}
{"molecule": "Cc1cc(C)c(C(=O)O)c(SSc2cc(C)cc(C)c2C(=O)O)c1", "GI50": "> 100 µM (inactive)"}
{"molecule": "N#Cc1nc(Nc2ccc(Cl)cc2)sc1N", "GI50": "24 µM (inactive)"}
{"molecule": "C[C@@H]1C[C@H]2[C@@H]3CCC4=CC(=O)C=C[C@]4(C)[C@@]3(Cl)[C@@H](Cl)C[C@]2(C)[C@@]1(O)C(=O)COP(=O)(O)O", "GI50": "> 100 µM (inactive)"}
{"molecule": "O=C1CS(=O)(=O)C(c2cccc(Oc3ccccc3)c2)N1c1cccc(Cl)c1Cl (centres undefined)", "GI50": "20.4 µM (inactive)"}
{"molecule": "Cc1ccc(C(=O)OC[C@H]2CC[C@@H](n3cc(N(C)C4CCCCC4)c(=O)[nH]c3=O)O2)cc1", "GI50": "30.9 µM (inactive)"}
{"molecule": "O=c1[nH]cc(COCC(O)CO)c(=O)[nH]1 (centres undefined)", "GI50": "> 100 µM (inactive)"}
{"molecule": "C[N+]1(C)CC[N+](C)(C)[BH-]1C(O)O", "GI50": "> 100 µM (inactive)"}
{"molecule": "FC(F)(F)C(C1=NC(C(F)(F)F)(C(F)(F)F)N=C(N2CCOCC2)O1)C(F)(F)F", "GI50": "22.9 µM (inactive)"}
{"molecule": "COC(=O)[C@H](Cc1ccccc1)NC(=O)CCCCCCC(=O)NO", "GI50": "39.8 µM (inactive)"}
{"molecule": "COc1ccc2c(-c3ccc(O)cc3)c(Oc3ccccc3)c(=O)oc2c1", "GI50": "9.62 µM (inactive)"}
{"molecule": "CN(C)c1n/c(=N/c2ccc(/N=c3\\nc(N(C)C)ss3)cc2)ss1", "GI50": "20 µM (inactive)"}
{"molecule": "COc1ccc(NCC(=O)Nn2c(-c3ccccc3)nc3ccccc3c2=O)cc1", "GI50": "33.7 µM (inactive)"}
{"molecule": "O=C(Nc1ccccc1)c1cc(S(=O)(=O)Nc2n[nH]c(=O)n2-c2ccccc2)c(S)cc1Cl", "GI50": "> 100 µM (inactive)"}
{"molecule": "CC(C)O/C=C1\\C(=O)C2(SCCS2)[C@H]2CCCC[C@@H]12", "GI50": "48.9 µM (inactive)"}
{"molecule": "Cc1c2c(c(C)c3c[n+](C)ccc13)Oc1ccccc1O2", "GI50": "9.42 µM (inactive)"}
{"molecule": "O=C(O)CCC(/N=C(\\C(=N\\C(CCC(=O)O)C(=O)O)c1ccccc1)c1ccccc1)C(=O)O (centres undefined)", "GI50": "> 100 µM (inactive)"}
{"molecule": "CC1(C)CC(=O)c2c(nc3c4c([nH]c(-c5ccc(Br)cc5)c24)CC(C)(C)C3)C1", "GI50": "30.7 µM (inactive)"}
{"molecule": "CC1CCC/C1=C(/I)C(=O)c1ccccc1 (centres undefined)", "GI50": "85.7 µM (inactive)"}
{"molecule": "CC(C)C12CCC3(CCC4C(C)(C(=O)O)CCCC4(C)C3C1)C(CN)C2 (centres undefined)", "GI50": "67.9 µM (inactive)"}
{"molecule": "COc1nc2[nH]ccc2c(=O)[nH]1", "GI50": "> 100 µM (inactive)"}
{"molecule": "CCn1c(-c2ccc(OC)cc2)nc2c1C(=O)c1ccccc1C2=O", "GI50": "> 100 µM (inactive)"}
{"molecule": "C(=N\\c1ccc(-c2nc3ccccc3s2)cc1)/c1ccco1", "GI50": "59.6 µM (inactive)"}
{"molecule": "CNC(=O)C1(N)c2ccccc2C=Cc2ccccc21", "GI50": "> 100 µM (inactive)"}
